Catalogue of z-score values
# procedure-summary: osmotic lysis modulators in infected erythrocytes, primary screen, PSAC antagonist project, cell-based, P. falciparum Indochina, OD700, 3 h (AID 1156)
# condition-parameters: higher = more signal, called active from +8 up or from −8 down
Keep it simple and answer with nothing but the number.

Sample records with z-score:
| molecule | z-score |
| --- | --- |
| CCOC(=O)[C@H]1CC=C2CC1C(=O)N1CCC[C@@H]1[C@@H]2O[Si](C)(C)C(C)(C)C (some centres not stated) | -0.42 |
| C#CCN(Cc1ccccc1Br)C(/C=C/c1ccccc1)CO (configuration not stated) | -1.31 |
| Cc1ccc(S[C@]2(C(=O)NCC(C)C)CC(=O)N(Cc3cc(C(F)(F)F)cc(C(F)(F)F)c3)[C@@H]2c2ccc(CO)cc2I)cc1 | 0.767 |
| O=C1O[C@H](c2ccccc2)[C@H](c2ccccc2)N2[C@H]1[C@@H](C(=O)Nc1nc3ccccc3s1)[C@]1(C(=O)Nc3ccc(C#CC4(O)CCCCCC4)cc31)[C@H]2c1ccc(OCCO)cc1 | 0.501 |
| Cc1ccc(S[C@]2(C(=O)NCCN3CCOCC3)CC(=O)N(Cc3ccccc3)[C@@H]2c2ccc(CO)cc2I)cc1 | 1.13 |

Record summary for C=C/C=C/[C@H]1C(=C)CN([C@@H](Cc2ccccc2)C(=O)OC)[C@@H]1[C@H](O)Cc1ccccc1 : reported z-score = -0.207

# molecule COC(=O)[C@@]1(Cc2ccc(OC)cc2)[C@H]2c3cc(C(=O)N4CCCC4)n(Cc4ccsc4Br)c3C[C@H]2CN1C(=O)c1ccccc1 ; its z-score = 0.0114

response.value for CC(CO)N1C(=O)[C@@H]2C3C(=O)OCCC/C=C\[C@H]3OC23C=CCN(c2ccc4ccccc4c2)C(=O)[C@@H]13 (some centres not stated) (field: z-score) = 1.87

Recorded z-score (molecule CCN(CC)c1ccc(N2CC=CC34O[C@@H]5/C=C\CCC(C)OC(=O)C5[C@H]3C(=O)N(C(CO)C(C)C)[C@@H]4C2=O)cc1 (some centres not stated) ): 0.975

The molecule listed as COc1ccc([Si](C)(C)[C@H]2[C@H](CC(=O)N3Cc4ccccc4C[C@H]3CO)O[C@@]3(C(=O)N(Cc4ccc(N5CCC5=O)cc4)c4ccccc43)[C@@H]2C)cc1 shows z-score equal to 1.46

// z-score lookup, molecule = CC(C)N1C(=O)[C@@]2(Cc3ccccc31)c1ccccc1C(=O)N(C1CCCCC1)[C@H]2c1ccc(CO)cc1 , result: 0.516

Recorded z-score (molecule COC(=O)[C@@]1(Cc2ccc(F)cc2)[C@H]2c3cc(C(=O)N4CCCC4)n(Cc4cc(C)n(C)n4)c3C[C@H]2CN1C(=O)c1ccccc1 ): 0.424

----------
# procedure-summary: CREB reporter modulators without forskolin, primary screen, cell-based, PC12, CRE-LacZ reporter, unstimulated (AID 1145)
# condition-parameters: no forskolin, luminescence, 4.5 h, called active from +8 up or from −8 down
Calls of active or inactive are those of the source.
Valid outcomes are listed here; reply with one: active, inactive

Past entries and their recorded results:
| compound | class-label |
| --- | --- |
| C=CCOC(=O)[C@H]1[C@@H]2C(=O)O[C@@H](c3ccccc3)[C@@H](c3ccccc3)N2[C@@H](c2ccc(OCCOC(=O)[C@@H]3C[C@@H]4C(=O)N5CCC[C@H]5C(=O)N4[C@@H]3c3cccc(OCCO)c3)cc2)[C@]12C(=O)Nc1ccccc12 | inactive |
| COCCCNC(=O)[C@@]1(Cc2ccccc2N=[N+]=[N-])N=C(c2ccc(OCCCO)cc2)O[C@H]1c1ccccc1N=[N+]=[N-] | inactive |
| CC1CC/C=C\[C@H]2OC34C=CCN(C(C)(C)C)C(=O)[C@H]3N(CCCCCCO)C(=O)[C@@H]4C2C(=O)O1 (some centres not stated) | inactive |

What classification did COC(=O)[C@@]1(Cc2ccc(OC)cc2)[C@H]2c3cc(C(=O)N4CCCC4)n(Cc4ccsc4Br)c3C[C@H]2CN1C(=O)c1ccccc1 end up with in this test?
inactive

Given C=CCN1C(=O)[C@@]2(O[C@@H](CCO)[C@H]([Si](C)(C)c3ccc(OC)cc3)[C@H]2C)c2cc(NC(=O)c3ccc(OC)cc3)ccc21 , state the outcome it received in this test.
active

Hi, sorry to bother you, what did the test record for C=C(CCCC)C(=O)CC[C@@H](OC(=O)c1cccnc1)c1ccc(CO)o1 ?
inactive

For this compound, state the assay outcome: C=C(C)C1C(=C)CN([C@H](CO)c2ccccc2)C1=O (some centres not stated)
inactive
